Test: Multiple ascending dose Phase 1b study, safety and pharmacokinetics in healthy adults
Type: in vivo, human
Settings: both sexes, human, plasma, oral; following a single dose, across 3 dose groups (200, 400, 600 mg); read-out: median Tmax
Metric: Tmax

- O=c1cc(NCCCN[C@@H]2CCOc3c(Br)cc(Br)cc32)[nH]c2ccsc12 [CRS3123]: 2 to 3 h

----------
Assay: Multiple ascending dose Phase 1b study, safety and pharmacokinetics in healthy adults
Type: in vivo, human
Settings: both sexes, human, plasma, oral, following a single dose, across 3 dose groups; read-out: geometric mean t1/2
Metric: half-life

* O=c1cc(NCCCN[C@@H]2CCOc3c(Br)cc(Br)cc32)[nH]c2ccsc12 | 3.01 to 3.53 h
